- Measurement notes: CC50 assay (CellTiter-Glo) in Huh-7 HCV replicon cells
- Assay type: cell-based, human
- Cond: human, 50% cytostatic concentration
- Experimental: The anti-HCV activity of the pyrido[3,2-d]pyrimidine derivatives of this invention was tested in a human hepatoma Huh-7 cell line harbouring a HCV replicon. The assay comprised the following steps: Step 1: Compound Preparation and Serial Dilution • 1. for water soluble pyrido[3,2-d]pyrimidine derivatives, a volume of 500 μL of solution in cell media (DMEM, 10% FBS, P/S, L-Glutamine) was prepared with a concentration being twice the concentration of the starting final serial dilution concentration. […]
For each record, write down the corresponding CC50 at 3 days.

Nc1nc(O[C@H]2CCOC2)c2nc(-c3ccc(C(=O)NCCCN4CCCC4)cc3)ccc2n1 [Example 79]; > 20 µM

Record CC50 at 3 days per entry; entries follow.
1. Nc1nc(O[C@H]2CCOC2)c2nc(-c3ccc(C(=O)NCCN4CCOCC4)cc3)ccc2n1 [Example 84]
2. CCOc1nc(N)nc2ccc(-c3cccc(NS(=O)(=O)c4cnc(NC(C)=O)s4)c3)nc12 [Example 48]
3. COCCOc1nc(N)nc2ccc(-c3ccc(C(=O)NOC)cc3)nc12 [Example 76]
4. CCOc1nc(N)nc2ccc(-c3ccc(C(=O)NCC(C)C)cc3)nc12 [Example 56]
5. Nc1nc(N2CCOCC2)c2nc(-c3ccc(C(=O)NC4CC4)cc3)ccc2n1 [Example 17]
6. CC(C)(N)C(=O)Nc1ccc(-c2ccc3nc(N)nc(O[C@@H]4CCOC4)c3n2)cc1 [Example 25]

1. > 20 µM
2. > 20 µM
3. > 20 µM
4. > 20 µM
5. < 10 µM
6. 10 to 20 µM

* * *

- Measurement notes: CC50 assay (CellTiter-Glo) in Huh-7 HCV replicon cells
- Type: cell-based, human
- Cond: human, 50% cytostatic concentration
Assay endpoint: CC50 at 3 days

CCOc1nc(N)nc2ccc(-c3cccc(NS(=O)(=O)CC(F)(F)F)c3)nc12 [Example 35]; > 20 µM
CCOc1nc(N)nc2ccc(-c3ccc(Nc4nncs4)cc3)nc12 [Example 32]; > 20 µM
CCOc1nc(N)nc2ccc(-c3cccc(NS(=O)(=O)C4CC4)c3)nc12 [Example 53]; > 20 µM
CCOc1nc(N)nc2ccc(-c3cccc(NS(=O)(=O)C(C)C)c3)nc12 [Example 52]; < 10 µM
COC(=O)Nc1ccc(-c2ccc3nc(N)nc(NCCS(C)(=O)=O)c3n2)cc1 [Example 6]; 10 to 20 µM

Record CC50 at 3 days per entry; entries follow.
1. CS(=O)(=O)CCNc1nc(N)nc2ccc(-c3cccc(NS(=O)(=O)C4CC4)c3)nc12 [Example 2]
2. CC(C)CNC(=O)c1ccc(-c2ccc3nc(N)nc(OC(C)C)c3n2)cc1 [Example 64]

["> 20 µM", "> 20 µM"]

CC50 at 3 days reading for CCOc1nc(N)nc2ccc(-c3ccc(NS(C)(=O)=O)cc3)nc12 [Example 43] : > 20 µM
